quantity-measured: melting point

Consider the reported melting point for these compounds:
>>> result("COC(=O)C1=C(C)NC(c2ccccc2)=C(C(=O)O)C1c1ccc([N+](=O)[O-])cc1 (stereo unspecified)")
"190 to 191 °C"
>>> result("COc1ccc2nccc(C(O)CCC3CCNCC3)c2c1 (stereo unspecified)")
"154 °C"
>>> result("COC(=O)CN(C)c1cc(-c2ccc(Cl)cc2)on1")
"141 °C"
>>> result("NC(=O)c1ccc2c(c1)C(=C(Cl)Cl)OC(=C(Cl)Cl)O2")
"217 to 218 °C"
>>> result("COc1c(NC(=O)Nc2ccc(Oc3cc(C)nc(C)n3)c3ccccc23)cc(C(F)(F)F)cc1NS(C)(=O)=O")
"212 to 213 °C"
>>> result("CCCC1=NC(=NOC(=O)NC)SC1(C)C")
"112 to 114 °C"

Challenge: Name the recorded melting point for Fc1cc(Cl)c2ccc(C(F)(F)F)cc2n1 .
Response given: 94 to 95 °C

Challenge: Name the recorded melting point for Cc1ccc(C(N)(c2ccc3c(c2)C(c2cccc(Cl)c2)Nc2nnnn2-3)c2cncn2C)cc1 (stereo unspecified) .
Response given: 140 °C

Challenge: Name the recorded melting point for COc1cc(N2CCCN(C[C@H](O)CO)CC2)ccc1Nc1ncc2ccc(-c3ccccc3OC)n2n1 .
Response given: 93 to 99 °C

Challenge: Name the recorded melting point for Cc1nc(C#CCCn2nc3ccccc3n2)sc1C .
Response given: 96 to 98 °C
